- Tested on: infectious agents (strains tested)
- EXPERIMENT: microbe, parasite or virus in culture
- Type: cell-based
- CONDITION_DESCRIPTION: Trichophyton tonsurans; read-out: MIC[90]
The entries below come with measured MIC values attached.
Field format: number, assumed µg/mL, no unit text.

Here's what some known entries look like.
IN: Requested field: MIC. Item: CCC([C@@H](C)O)n1ncn(-c2ccc(N3CCN(c4ccc(OC[C@@H]5CO[C@@](Cn6cncn6)(c6ccc(F)cc6F)C5)cc4)CC3)cc2)c1=O (stereo partly shown) [Posaconazole]
OUT: 0.125

IN: Requested field: MIC. Item: CCC(C)n1ncn(-c2ccc(N3CCN(c4ccc(OCC5COC(Cn6cncn6)(c6ccc(Cl)cc6Cl)O5)cc4)CC3)cc2)c1=O (stereo not shown) [Itraconazole]
OUT: 0.063

Please look at the following compound next.
IN: Requested field: MIC. Item: C[C@@H](c1ncncc1F)[C@](O)(Cn1cncn1)c1ccc(F)cc1F [Voriconazole]
OUT: 0.063
